System: TNF-alpha inducible reporter gene
ASSAY DETAILS: Inhibition of TNF-alpha-induced reporter gene expression (luciferase) in HeLa-derived cell line
Type: cell-based, human
SETUP CONDITIONS: Homo sapiens, 6 h, remaining luciferase activity in presence of 3 μM of compound as ratio of DMSO-treated cells, TNF-alpha 50 ng/ml, read-out: Efficacy (ratio to DMSO) TNF-alpha induced response

# COMPOUND, activity at 3 µM
measured = [
    ("COc1cc(F)ccc1-c1ccnc(NC(=O)C(C)Cc2ccncc2)c1 (stereo not drawn)", "98%"),
    ("COc1cc(F)ccc1-c1ccnc(NC(=O)C(C)c2ccc(N3CCN(C)CC3)cc2)c1 (stereo not drawn)", "8%"),
    ("COc1cc(F)ccc1-c1ccnc(NC(=O)C2CNC(=O)C2)c1 (stereo not drawn)", "4%"),
    ("COc1cc(F)ccc1-c1ccnc(NC(=O)Cc2ccnc(N3CCN(C)CC3)c2)c1", "4%"),
    ("COc1cc(F)ccc1-c1ccnc(NC(=O)C(C)Cc2ccc(N3CCN(C)CC3)cc2)c1 (stereo not drawn)", "121%"),
    ("COc1cc(F)ccc1-c1ccnc(NC(=O)[C@H]2CC[C@@H](NCc3ccccc3)CC2)c1", "2%"),
    ("COc1cc(F)ccc1-c1ccnc(NC(=O)[C@@H]2CCC[C@H](NC(C)=O)C2)c1", "46%"),
    ("COc1cc(F)ccc1-c1ccnc(NC(=O)Cc2ccncc2)c1", "4%"),
    ("COc1cc(F)ccc1-c1ccnc(NC(=O)CC2CCCCC2)c1", "49%"),
]

---

TESTED SYSTEM: CDK1/CycB (Homo sapiens (Human))
Sequence (P06493 whole entry): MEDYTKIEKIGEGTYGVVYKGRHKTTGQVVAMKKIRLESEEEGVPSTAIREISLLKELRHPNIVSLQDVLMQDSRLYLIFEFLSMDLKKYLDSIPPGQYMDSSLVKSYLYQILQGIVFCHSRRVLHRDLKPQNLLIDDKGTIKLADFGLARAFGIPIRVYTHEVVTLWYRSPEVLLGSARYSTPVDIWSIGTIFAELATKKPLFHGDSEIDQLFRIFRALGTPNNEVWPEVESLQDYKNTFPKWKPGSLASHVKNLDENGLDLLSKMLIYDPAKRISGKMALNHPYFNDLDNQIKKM
Sequence (P14635 whole entry partner): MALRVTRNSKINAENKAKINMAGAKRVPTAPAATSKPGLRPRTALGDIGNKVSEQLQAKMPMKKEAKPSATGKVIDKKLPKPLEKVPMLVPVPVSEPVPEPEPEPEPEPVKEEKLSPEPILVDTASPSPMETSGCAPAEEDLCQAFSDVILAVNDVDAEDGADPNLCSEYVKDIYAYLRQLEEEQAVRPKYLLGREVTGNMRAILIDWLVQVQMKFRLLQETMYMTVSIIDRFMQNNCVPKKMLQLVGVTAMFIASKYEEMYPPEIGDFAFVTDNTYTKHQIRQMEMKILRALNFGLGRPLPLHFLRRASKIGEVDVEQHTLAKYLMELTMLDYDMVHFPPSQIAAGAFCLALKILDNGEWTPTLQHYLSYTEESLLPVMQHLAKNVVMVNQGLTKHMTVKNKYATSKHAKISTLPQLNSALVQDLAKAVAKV
ASSAY DETAILS: Kinase activity assay IC50 profile
SETUP CONDITIONS: read-out: IC50 CDK1/B

# COMPOUND, IC50, nM
measured = [
    ("COc1cc(F)ccc1-c1ccnc(NC(=O)[C@H]2CCC[C@@H](NC(C)=O)C2)c1 (relative stereo)", 94),
]

---

TESTED SYSTEM: CDK7/CycH/MAT1 (Homo sapiens (Human), UniProt P50613)
Sequence (P50613 whole entry): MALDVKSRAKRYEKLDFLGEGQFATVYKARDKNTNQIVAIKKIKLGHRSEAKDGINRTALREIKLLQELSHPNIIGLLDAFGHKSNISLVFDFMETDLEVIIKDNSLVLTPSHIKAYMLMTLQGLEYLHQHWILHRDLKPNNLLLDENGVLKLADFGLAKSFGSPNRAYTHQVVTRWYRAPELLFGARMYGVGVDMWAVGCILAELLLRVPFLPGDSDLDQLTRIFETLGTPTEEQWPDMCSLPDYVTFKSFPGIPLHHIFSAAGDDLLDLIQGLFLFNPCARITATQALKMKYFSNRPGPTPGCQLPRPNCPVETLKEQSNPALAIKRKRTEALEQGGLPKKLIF
Sequence (P51946 whole entry partner): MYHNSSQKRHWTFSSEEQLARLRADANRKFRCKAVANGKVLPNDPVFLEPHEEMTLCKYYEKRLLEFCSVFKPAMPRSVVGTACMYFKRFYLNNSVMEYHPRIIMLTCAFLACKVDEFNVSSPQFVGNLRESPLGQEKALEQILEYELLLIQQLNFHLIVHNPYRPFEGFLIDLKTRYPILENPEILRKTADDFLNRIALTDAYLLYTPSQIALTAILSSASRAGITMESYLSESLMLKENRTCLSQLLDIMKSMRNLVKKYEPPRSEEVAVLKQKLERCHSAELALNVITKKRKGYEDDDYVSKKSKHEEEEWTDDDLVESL
Sequence (P51948 whole entry partner): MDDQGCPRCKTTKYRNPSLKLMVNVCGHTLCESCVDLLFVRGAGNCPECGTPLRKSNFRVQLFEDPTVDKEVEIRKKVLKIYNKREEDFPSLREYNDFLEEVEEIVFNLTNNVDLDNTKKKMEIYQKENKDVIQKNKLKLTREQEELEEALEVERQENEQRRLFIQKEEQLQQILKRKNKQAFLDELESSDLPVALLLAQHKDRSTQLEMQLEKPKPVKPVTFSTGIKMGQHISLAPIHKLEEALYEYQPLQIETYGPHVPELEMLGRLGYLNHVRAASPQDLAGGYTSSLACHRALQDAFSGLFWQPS
ASSAY DETAILS: Kinase activity assay IC50 profile
SETUP CONDITIONS: read-out: IC50 CDK7/H/MAT1
pIC50: −log10 of the molar value.
QUANTITY KIND: pIC50

# COMPOUND, TEST VALUE
rows = [
    ("COc1cc(F)ccc1-c1ccnc(NC(=O)[C@H]2CCC[C@@H](NC(C)=O)C2)c1 (relative stereo)", "< 5.30"),
]

---

TESTED SYSTEM: CDK5/p35NCK (Homo sapiens (Human))
Sequence (Q00535 whole entry): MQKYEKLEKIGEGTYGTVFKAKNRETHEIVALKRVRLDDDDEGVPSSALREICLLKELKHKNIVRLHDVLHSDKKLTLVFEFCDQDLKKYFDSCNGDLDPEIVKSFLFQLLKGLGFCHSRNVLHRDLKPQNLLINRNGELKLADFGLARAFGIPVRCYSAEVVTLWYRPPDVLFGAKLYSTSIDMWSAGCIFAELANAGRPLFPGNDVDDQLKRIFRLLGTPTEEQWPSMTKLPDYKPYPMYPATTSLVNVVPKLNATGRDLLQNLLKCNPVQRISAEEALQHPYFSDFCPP
Sequence (Q15078 whole entry partner): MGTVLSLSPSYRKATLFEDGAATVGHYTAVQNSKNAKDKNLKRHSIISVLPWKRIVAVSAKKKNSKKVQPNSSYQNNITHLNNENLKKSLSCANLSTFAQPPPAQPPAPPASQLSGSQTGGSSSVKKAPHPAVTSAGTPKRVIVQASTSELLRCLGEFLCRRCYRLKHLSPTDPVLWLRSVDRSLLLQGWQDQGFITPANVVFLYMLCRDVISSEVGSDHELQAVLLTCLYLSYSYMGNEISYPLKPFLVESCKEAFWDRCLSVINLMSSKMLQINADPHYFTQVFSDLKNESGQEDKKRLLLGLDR
ASSAY DETAILS: Kinase activity assay IC50 profile
SETUP CONDITIONS: read-out: IC50 CDK5/p35
Source text: In vitro kinase assay analysis may be performed using standard techniques described in the art. […] The median value of the counts in column 1 (n=8) of each assay plate was defined as “low control”. This value reflects unspecific binding of radioactivity to the plate in the absence of a protein kinase but in the presence of the substrate. […]
pIC50: −log10 of the molar value.

# MOLECULE, pIC50
data = [
    ("COc1cc(F)ccc1-c1ccnc(NC(=O)[C@H]2CCC[C@@H](NC(C)=O)C2)c1 (relative stereo)", 5.97),
]

---

TESTED SYSTEM: CDK9 (Homo sapiens (Human))
Sequence (P50750 whole entry): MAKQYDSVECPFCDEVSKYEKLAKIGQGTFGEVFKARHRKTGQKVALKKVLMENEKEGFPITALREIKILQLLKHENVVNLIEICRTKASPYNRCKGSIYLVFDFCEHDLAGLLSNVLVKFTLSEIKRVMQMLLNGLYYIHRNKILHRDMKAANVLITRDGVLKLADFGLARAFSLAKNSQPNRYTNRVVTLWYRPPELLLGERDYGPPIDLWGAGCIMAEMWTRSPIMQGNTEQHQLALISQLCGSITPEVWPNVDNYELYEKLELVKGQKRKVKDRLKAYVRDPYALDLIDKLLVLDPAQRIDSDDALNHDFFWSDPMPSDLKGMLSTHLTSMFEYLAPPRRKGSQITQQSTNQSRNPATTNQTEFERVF
Sequence (O60563 whole entry partner): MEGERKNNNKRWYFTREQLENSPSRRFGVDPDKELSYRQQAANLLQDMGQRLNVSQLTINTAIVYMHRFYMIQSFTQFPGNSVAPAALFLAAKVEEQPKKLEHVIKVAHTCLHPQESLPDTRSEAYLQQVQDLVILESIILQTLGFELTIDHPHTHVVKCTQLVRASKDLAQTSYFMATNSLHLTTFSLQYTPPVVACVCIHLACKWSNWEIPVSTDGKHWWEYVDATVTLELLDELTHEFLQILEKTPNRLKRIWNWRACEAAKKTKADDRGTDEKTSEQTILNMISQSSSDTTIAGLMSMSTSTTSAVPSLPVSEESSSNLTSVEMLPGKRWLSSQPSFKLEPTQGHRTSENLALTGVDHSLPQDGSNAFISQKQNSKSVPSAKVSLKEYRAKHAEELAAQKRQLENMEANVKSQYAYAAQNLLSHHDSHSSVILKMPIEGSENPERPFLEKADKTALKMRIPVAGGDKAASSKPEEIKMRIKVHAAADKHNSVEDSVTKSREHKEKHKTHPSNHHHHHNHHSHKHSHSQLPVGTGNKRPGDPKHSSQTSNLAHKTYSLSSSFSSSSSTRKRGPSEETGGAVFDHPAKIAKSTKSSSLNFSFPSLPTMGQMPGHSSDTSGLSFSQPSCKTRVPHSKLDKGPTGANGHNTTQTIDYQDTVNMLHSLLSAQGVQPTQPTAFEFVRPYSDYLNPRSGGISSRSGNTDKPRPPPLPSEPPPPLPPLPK
ASSAY DETAILS: In vitro kinase inhibition, KinaseProfiler service of Millipore, residual activity
Assay type: biochemical
SETUP CONDITIONS: residual activity at 10 nM compound
QUANTITY KIND: CDK9 10 nM (RA in %)

# COMPOUND, QUANTITY KIND, TEST VALUE
measured = [
    ("COc1cc(F)ccc1-c1ccnc(NC(=O)[C@H]2CCC[C@H](NC(C)=O)C2)c1 (relative stereo) [Example 26]", "CDK9 10 nM (RA in %)", "33%"),
    ("COc1cc(F)ccc1-c1ccnc(NC(=O)[C@H]2CCC[C@H](NC(C)=O)C2)c1 (relative stereo) [Example 25]", "CDK9 10 nM (RA in %)", "99%"),
    ("COc1cc(F)ccc1-c1ccnc(NC(=O)C(C)c2ccncc2)c1 (centres unmarked)", "CDK9 10 nM (RA in %)", "65%"),
    ("COc1ccc(F)cc1-c1ccnc(NC(=O)C(C)c2cccs2)c1 (centres unmarked) [Example 18]", "CDK9 10 nM (RA in %)", "32%"),
    ("COc1ccc(F)cc1-c1ccnc(NC(=O)C(C)c2cccs2)c1 (centres unmarked) [Example 17]", "CDK9 10 nM (RA in %)", "114%"),
]

---

The following molecules are shown together with reported activity at 3 µM values.
Tested on: TNF-alpha inducible reporter gene
ASSAY DETAILS: Inhibition of TNF-alpha-induced reporter gene expression (luciferase) in HeLa-derived cell line
Format: cell-based, human
SETUP CONDITIONS: Homo sapiens, 6 h, remaining luciferase activity in presence of 3 μM of compound as ratio of DMSO-treated cells, TNF-alpha 50 ng/ml, read-out: Efficacy (ratio to DMSO) TNF-alpha induced response
QUANTITY KIND: activity at 3 µM (%)

# MOLECULE, TESTED SYSTEM, RESULT UNIT, TEST VALUE
records = [
    ("COc1ccc(F)cc1-c1ccnc(NC(=O)[C@@H](C)c2ccccc2)c1", "TNF-alpha inducible reporter gene", "%", 10),
    ("COc1cc(F)ccc1-c1ccnc(NC(=O)Cc2ccccc2)c1", "TNF-alpha inducible reporter gene", "%", 8),
    ("COc1cc(F)ccc1-c1ccnc(NC(=O)[C@@H]2CC[C@H](NCc3ccccc3)C2)c1", "TNF-alpha inducible reporter gene", "%", 2),
    ("COc1cc(F)ccc1-c1ccnc(NC(=O)Cc2cccs2)c1", "TNF-alpha inducible reporter gene", "%", 4),
    ("COc1cc(F)ccc1-c1ccnc(NC(=O)[C@@H]2CC[C@H](NC(C)=O)C2)c1", "TNF-alpha inducible reporter gene", "%", 7),
    ("COc1cc(F)ccc1-c1ccnc(NC(=O)C(C)c2cccnc2)c1 (centres unmarked)", "TNF-alpha inducible reporter gene", "%", 4),
    ("COc1cc(F)ccc1-c1ccnc(NC(=O)[C@H]2CC[C@@H](N)CC2)c1", "TNF-alpha inducible reporter gene", "%", 5),
    ("COc1cc(F)ccc1-c1ccnc(NC(=O)CC(C)c2cccnc2)c1 (centres unmarked)", "TNF-alpha inducible reporter gene", "%", 89),
    ("COc1cc(F)ccc1-c1ccnc(NC(=O)C2CCNCC2)c1", "TNF-alpha inducible reporter gene", "%", 5),
    ("COc1cc(F)ccc1-c1ccnc(NC(=O)C(C)Cc2cccnc2)c1 (centres unmarked)", "TNF-alpha inducible reporter gene", "%", 104),
    ("COc1cc(F)ccc1-c1ccnc(NC(=O)[C@H]2CC[C@@H](NC(C)=O)C2)c1", "TNF-alpha inducible reporter gene", "%", 3),
    ("COc1cc(F)ccc1-c1ccnc(NC(=O)CC(C)c2ccc(N3CCN(C)CC3)cc2)c1 (centres unmarked)", "TNF-alpha inducible reporter gene", "%", 105),
    ("COc1cc(F)ccc1-c1ccnc(NC(=O)Cc2ccc(N3CCN(C)CC3)cc2)c1", "TNF-alpha inducible reporter gene", "%", 8),
    ("COc1cc(F)ccc1-c1ccnc(NC(=O)C2CCCCC2)c1", "TNF-alpha inducible reporter gene", "%", 23),
    ("COc1cc(F)ccc1-c1ccnc(NC(=O)[C@H]2CC[C@@H](Nc3ccncc3)CC2)c1", "TNF-alpha inducible reporter gene", "%", 4),
    ("COc1cc(F)ccc1-c1ccnc(NC(=O)[C@@H](C)c2cccnc2)c1 (stereo in doubt)", "TNF-alpha inducible reporter gene", "%", 83),
    ("COc1cc(F)ccc1-c1ccnc(NC(=O)Cc2ccnc(Cl)c2)c1", "TNF-alpha inducible reporter gene", "%", 6),
    ("COc1ccc([C@H](C)C(=O)Nc2cc(-c3ccc(F)cc3OC)ccn2)cc1", "TNF-alpha inducible reporter gene", "%", 7),
    ("COc1cc(F)ccc1-c1ccnc(NC(=O)CC(C)c2ccncc2)c1 (centres unmarked)", "TNF-alpha inducible reporter gene", "%", 82),
    ("COc1cc(F)ccc1-c1ccnc(NC(=O)[C@@H]2CC[C@H](Nc3ccccc3)C2)c1", "TNF-alpha inducible reporter gene", "%", 5),
    ("COc1cc(F)ccc1-c1ccnc(NC(=O)[C@H]2CC[C@@H](Nc3nccs3)CC2)c1", "TNF-alpha inducible reporter gene", "%", 2),
    ("COc1ccc(CC(=O)Nc2cc(-c3ccc(F)cc3OC)ccn2)cn1", "TNF-alpha inducible reporter gene", "%", 4),
    ("COc1cc(F)ccc1-c1ccnc(NC(=O)[C@H]2CCC[C@@H](NC(C)=O)C2)c1 (relative stereo)", "TNF-alpha inducible reporter gene", "%", 3),
    ("COc1cc(F)ccc1-c1ccnc(NC(=O)[C@H]2CC[C@@H](Nc3ccccc3)CC2)c1", "TNF-alpha inducible reporter gene", "%", 26),
    ("COc1cc(F)ccc1-c1ccnc(NC(=O)[C@H]2CC[C@@H](Nc3ccccn3)CC2)c1", "TNF-alpha inducible reporter gene", "%", 3),
    ("COc1ccc(CC(=O)Nc2cc(-c3ccc(F)cc3OC)ccn2)cc1", "TNF-alpha inducible reporter gene", "%", 7),
]
